Data origin: patent US10703764B2

- target.entity: BRD4 BD1 (Homo sapiens)
- protocol.text: AlphaScreen binding assay, BRD4 Bromodomain 1
In this section we review reported IC50 values for a set of molecules.
measured.attribute: IC50

In [3]: df
Out[3]:
                                    molecule  measured_attribute       measurement
 0  CC(=O)N1c2ccccc2N(C(=O)CCN2CCCCCC2=O)C[C@@H]1C [Example I-765]                IC50        > 10000 nM
 1  CC(=O)N1c2ccc(-c3ccc(N4CCCC4=O)cc3)cc2N(C(=O)C2CC2)C[C@@H]1C [Example I-1131]                IC50  1000 to 10000 nM
 2  CC(=O)N1c2ccc(-c3cn(C)cn3)cc2N(C(=O)c2ccco2)C[C@@H]1C [Example I-401]                IC50  1000 to 10000 nM
 3  COC(=O)N1c2ccc(-c3ccc(S(C)(=O)=O)cc3)cc2N(C(=O)Oc2cccnc2)C[C@@H]1C [Example I-1276]                IC50  1000 to 10000 nM
 4  CC(=O)N1c2ccc(-c3ccc(N(C)S(C)(=O)=O)cc3)cc2N(C(=O)OC(C)C)C[C@@H]1C [Example I-346]                IC50    100 to 1000 nM
 5  CC(=O)N1c2ccc(-c3cnn(CCC(N)=O)c3)cc2N(C(=O)C2CC2)C[C@@H]1C [Example I-674]                IC50  1000 to 10000 nM
 6  CC(=O)N1c2ccc(-c3cnn(C4CC4)c3)cc2N(C(=O)OCC(F)(F)F)C[C@@H]1C [Example I-79]                IC50    100 to 1000 nM
 7  COc1ccccc1CNC(=O)N1C[C@H](C)N(C(C)=O)c2ccc(-c3ccc(S(C)(=O)=O)cc3)cc21 [Example I-972]                IC50        > 10000 nM
 8  CC(=O)N1c2ccc(-c3ccc(S(=O)(=O)CC4CC4)cc3)cc2N(C(=O)OC(C)C)C[C@@H]1C [Example I-1077]                IC50  1000 to 10000 nM
 9  COc1ccc(S(=O)(=O)N2C[C@H](C)N(C(C)=O)c3ccccc32)c(OC)c1 [Example I-950]                IC50        > 10000 nM
10  CC(=O)N1c2ccc(-c3cnn(Cc4cccnc4)c3)cc2N(C(=O)C2CC2)C[C@@H]1C [Example I-122]                IC50    100 to 1000 nM
11  CC(=O)N1c2ccccc2N(Cc2nccs2)C[C@@H]1C [Example I-915]                IC50        > 10000 nM
12  CC(=O)N1c2ccc(-c3cnn(CC(C)(C)O)c3)cc2N(C(=O)Oc2ccccn2)C[C@@H]1C [Example I-1320]                IC50  1000 to 10000 nM
13  CC(=O)N1c2ccc(-c3ccccc3F)cc2N(C(=O)COc2ccccc2)C[C@@H]1C [Example I-794]                IC50  1000 to 10000 nM
14  CC(=O)N1c2ccc(-c3ccc(C(=O)N4CCC[C@@H](N)C4)cc3)cc2N(C(=O)OC(C)C)C[C@@H]1C [Example I-589]                IC50    100 to 1000 nM
15  CCOC(=O)N1C[C@H](C)N(C(C)=O)c2ccc(-c3cccc(S(=O)(=O)N(C)C)c3)cc21 [Example I-1048]                IC50  1000 to 10000 nM
16  CC(=O)N1c2ccc(-c3cccc(S(=O)(=O)C4CC4)c3)cc2N(C(=O)OC2CCCCC2)C[C@@H]1C [Example I-1243]                IC50    100 to 1000 nM
17  CCOC(=O)N1C[C@H](C)N(C(C)=O)c2ccc(-c3cccc(S(=O)(=O)CC)c3)cc21 [Example I-1092]                IC50  1000 to 10000 nM
18  CC(=O)N1c2ccc(-c3cn[nH]c3)cc2N(C(=O)OC2CCCC2)C[C@@H]1C [Example I-20]                IC50          < 100 nM
19  CCS(=O)(=O)c1ccc(-c2ccc3c(c2)N(C(=O)C2CC2)C[C@H](C)N3C(C)=O)cc1 [Example I-1027]                IC50  1000 to 10000 nM
20  COc1ccc(OC)c(S(=O)(=O)N2C[C@H](C)N(C(C)=O)c3ccccc32)c1 [Example I-930]                IC50        > 10000 nM
21  CC(=O)N1c2ccc(-c3ccc4c(c3)CS(=O)(=O)N4)cc2N(C(=O)C2CC2)C[C@@H]1C [Example I-1178]                IC50    100 to 1000 nM
22  CC(=O)N1c2ccc(-c3ccc(S(=O)(=O)NC(C)(C)C)cc3)cc2N(C(=O)C2CCC2)C[C@@H]1C [Example I-1128]                IC50  1000 to 10000 nM
23  CC(=O)N1c2ccc(-c3cnn(C4CC4)c3)cc2N(C(=O)OCCC(F)(F)F)C[C@@H]1C [Example I-78]                IC50    100 to 1000 nM
24  CC(=O)N1c2ccccc2N(Cc2ccccn2)C[C@@H]1C [Example I-913]                IC50        > 10000 nM
25  CC(=O)N1c2ccc(-c3ccc(S(C)(=O)=O)cc3)cc2N(C(=O)OC2CCC2)C[C@@H]1C [Example I-493]                IC50    100 to 1000 nM
26  CC(=O)N1c2ccc(-c3ccc(C(=O)N4CCCN(C)CC4)cc3)cc2N(C(=O)OC(C)C)C[C@@H]1C [Example I-553]                IC50    100 to 1000 nM
27  CC(=O)N1c2ccc(-c3cnn(CCCO)c3)cc2N(C(=O)OC(C)C)C[C@@H]1C [Example I-137]                IC50    100 to 1000 nM
28  C[C@H]1CN(C(=O)C2CC2)c2cc(-c3ccc(C(=O)NCCN)cc3)ccc2N1C(=O)C1CC1 [Example I-452]                IC50  1000 to 10000 nM
29  CC(=O)N1c2ccc(-c3cnn(CCC#N)c3)cc2N(C(=O)OC(C)C)C[C@@H]1C [Example I-679]                IC50    100 to 1000 nM
